# experimental_target: T1, TGFβ2 (transforming growth factor beta 2) (Homo sapiens, UniProt P61812 SEQ:1-112)
# T1 sequence: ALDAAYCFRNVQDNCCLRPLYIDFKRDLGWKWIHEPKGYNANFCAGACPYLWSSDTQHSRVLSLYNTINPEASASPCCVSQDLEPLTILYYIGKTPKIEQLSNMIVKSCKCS
# assay_summary: filter
# settings: chain copies: 2 (inferred, homodimer)
Examples of binders with documented binding signal follow.
assay_readout: binding signal

INSERT INTO results (binder, experimental_result) VALUES
  ('GGAGGUUAUUAGAGUCUAUAGCUGUACUCC (ssRNA, 2''-F C and U) [21a-21(ML-101)]', '1000 x Kd of NX22284'),
  ('GGAGGUUAUUACAGAGUCUGUAUAGCUGUAC (ssRNA, 2''-F C and U) [21a-21(ML-105)]', '1000 x Kd of NX22284'),
  ('GGAGGUUAUUAGAGUCUAUAGCCUCC (ssRNA, 2''-F C and U) [21a-21(ML-102)]', '1000 x Kd of NX22284'),
  ('GGAGGUUAUUACAGAGUCUGUAUAGCGUACUCC (ssRNA, 2''-F C and U) [21a-21(ML-114)]', '1000 x Kd of NX22284'),
  ('GGAGGUUAUUACAAGUUGUAUAGCUGUACUCC (ssRNA, 2''-F C and U) [21a-21(ML-122)]', '1000 x Kd of NX22284'),
  ('GGAGGUUAUUACAGAGUUGUAUAGCUGUACUCC (ssRNA, 2''-F C and U) [21a-21(ML-128)]', '1000 x Kd of NX22284'),
  ('GGAGGUUAUUACAGAUCUGUAUAGCUGUACUCC (ssRNA, 2''-F C and U) [21a-21(ML-120)]', '1000 x Kd of NX22284'),
  ('GGAGGUUAUUACAGAGUCUGUAUAGCUGUCUCC (ssRNA, 2''-F C and U) [21a-21(ML-115)]', '1000 x Kd of NX22284'),
  ('GGAGGUUAUACAGAGUCUGUAUAGCUGUACUCC (ssRNA, 2''-F C and U) [21a-21(ML-118)]', '1000 x Kd of NX22284'),
  ('GAGGUUAUUACAGAGUCUGUAUAGCUGUACUCC (ssRNA, 2''-F C and U; 3''-3'' dT cap) [NX22301]', '1 x Kd of NX22284'),
  ('GGAGGUUAUUACGAGUCUGUAUAGCGUACUCC (ssRNA, 2''-F C and U) [21a-21(ML-132)]', '1000 x Kd of NX22284'),
  ('GGGGUUAUUAAGAGUCUGUAUAGCUUACCC (ssRNA, 2''-F C and U) [21a-21(ML-138)]', '10000 x Kd of NX22284'),
  ('GGAGGUUAUUACAGAGUCUGUAUAGCUGUA (ssRNA, 2''-F C and U) [21a-21(ML-96)]', '1000 x Kd of NX22284');
